assay: Viability qHTS for spleen associated tyrosine kinase inhibitor (SYKi) naive MV4-11 cells (AID 1963823); settings: MV4-11 AML viability, CellTiter-Glo luminescence, 72 h; series mostly up to 45 µM; also: nearly all actives have a fitted effect of over 40% in size
Records with an inconclusive call do not appear. The source made the active and inactive calls. Calls follow the shape of the dose curve; as a rule, active = well fitted cell-killing curve with a large enough effect; inconclusive = small, poorly fitted or top-dose-only effect, or effect the other way; inactive = no such curve, though single readings can be large or run the other way.
Your response should consist of one outcome taken from active, inactive

Take a look at these entries with their results.
1. COC(=O)C12C(=O)C(C)(O)C(=O)C1(C)C(C)=CC1C34CCC(OC3=O)C(C)(C)C4CCC12C (centres undefined)    inactive
2. C[C@H](N)C(=O)c1ccccc1    inactive
3. Cc1cn(C[C@H](N)C(=O)O)c(=O)n(Cc2cc(-c3ccccc3)sc2C(=O)O)c1=O    inactive
4. CO[C@H]1[C@H](O)[C@H](O[C@H]2CC[C@]3(C)C4CC[C@]5(C)[C@H](C6=CC(=O)OC6)CC[C@]5(O)C4CC[C@@H]3C2)O[C@@H](C)[C@@H]1O (some centres undefined)    active
5. COC(=O)[C@@]12C(=O)C(C)C(=O)[C@]1(C)C(C)=C[C@H]1[C@]3(C=O)CC[C@H](OC(C)=O)C(C)(C)[C@H]3CC[C@@]12C (some centres undefined)    inactive

Q: // param item: C=C(CO)[C@@]12O[C@@H]1[C@@]1(C)C(=CC2=O)CC[C@@H](O)[C@@H]1C ; yields the recorded call
Ans: active

Q: Try this compound too: COC(=O)C(Cl)C(=O)OC
Ans: inactive

Q: Next compound up: CC1CCCC(O)CCC/C=C/c2cc(O)cc(O)c2C(=O)O1 (centres undefined)
Ans: active

Q: Now try CN1C(=O)[C@@H](NC(=O)[C@H](CCC(F)(F)F)[C@H](CCC(F)(F)F)C(N)=O)N=C(c2ccccc2)c2ccccc21 .
Ans: inactive
